experiment: Antiproliferative activity against human Nc37 cells assessed as cell viability at 0.1 mM after 72 hrs by trypan blue dye based hemocytometer analysis relative to control; design: species or system NC-37; details: read-out: Activity
Param label: returns True when viability at 72 h, 100 µM < 60%, returns False otherwise, including exact equality.

>  <Input smiles>
O=C(O)CNC(=O)Nc1ncnc2[nH]ncc12

>  <Class label>
False

$$$$
>  <Input smiles>
c1ccc(CNc2ncnc3[nH]ncc23)cc1

>  <Class label>
True

$$$$
>  <Input smiles>
C#CCNC(=O)Nc1ncnc2[nH]ncc12

>  <Class label>
False

$$$$
>  <Input smiles>
C[C@@H](O)[C@H](NC(=O)Nc1ncnc2[nH]ncc12)C(=O)O

>  <Class label>
True

$$$$
>  <Input smiles>
O=C(Nc1ccccc1)Nc1ncnc2[nH]ncc12

>  <Class label>
False

$$$$
>  <Input smiles>
CC(C)Nc1ncnc2[nH]ncc12

>  <Class label>
True

$$$$

Data request: Does the reported viability at 72 h, 100 µM of the following compound sit strictly below 60%? `O=C(Nc1ccccc1Cl)Nc1ncnc2[nH]ncc12`
Data returned: False

Data request: Now the compound `O=C(Nc1ncnc2[nH]ncc12)NC12CC3CC(CC(C3)C1)C2`
Data returned: True

Data request: Now the compound `C=CCNC(=O)Nc1ncnc2[nH]ncc12`
Data returned: True
